System: KB
testDetails: Cytotoxicity against human KB cells assessed as cell growth inhibition after 72 hrs by MTT assay
Type: functional, cell-based
quantity: IC50 (µM)
Entry rule: numbers only, all in µM.

Task: Consider the compound shown here: COc1ccc(C2=C(c3cc(OC)c(OC)c(OC)c3)C(=O)N(C)C2=O)cc1 What is its recorded IC50?
Result: 14.2

Task: Another compound: COc1ccc(C2=C(c3cc(OC)c(OC)c(OC)c3)C(=O)N(O)C2=O)cc1N
Result: 1.1

Task: Another compound: COc1ccc(C2=C(c3cc(OC)c(OC)c(OC)c3)C(=O)OC2=O)cc1
Result: 10.8

Task: Another compound: COc1ccc(C2=C(c3cc(OC)c(OC)c(OC)c3)C(=O)N(C)C2=O)cc1N
Result: 1.3

Task: Another compound: COc1ccc(C2=C(c3cc(OC)c(OC)c(OC)c3)C(=O)OC2=O)cc1N
Result: 2.3
